Tested on: Coptotermes formosanus Shiraki
test-summary: Test Example 1: termite-killing test on treated filter paper
Type: in vivo
test-settings: mortality class; 1 ml of a 500 ppm solution on filter paper, seven days after inoculation, triplicate group of 10 insects
outcome-measure: Termite-killing effect

[[record]]
molecule = "N#Cc1ccc(CN(N=CC(=O)Nc2ccc(Cl)cc2)c2cccc(C(F)(F)F)c2)cc1 [Compound 138]"
outcome_measure = "Termite-killing effect"
assay_value = "A (100)"

[[record]]
molecule = "N#Cc1ccc(CC(=NNC(=O)Nc2ccc(SC(F)(F)F)cc2)c2cccc(C(F)(F)F)c2)cc1 [Compound 80]"
outcome_measure = "Termite-killing effect"
assay_value = "A (100)"

[[record]]
molecule = "O=C(C=NN(Cc1ccccc1)c1ccccc1)Nc1ccc(OC(F)(F)F)cc1 [Compound 122]"
outcome_measure = "Termite-killing effect"
assay_value = "D (79-50)"

[[record]]
molecule = "O=C(NN=C(Cc1ccccc1)c1ccccc1)Nc1ccc(OC(F)(F)F)cc1 [Compound 2]"
outcome_measure = "Termite-killing effect"
assay_value = "B (99-90)"

[[record]]
molecule = "O=C(C=NN(Cc1ccc(Cl)cc1)c1cccc(Cl)c1)Nc1ccc(Cl)cc1 [Compound 126]"
outcome_measure = "Termite-killing effect"
assay_value = "A (100)"

[[record]]
molecule = "O=C(NNC(Cc1ccccc1[N+](=O)[O-])c1ccccc1)Nc1ccc(OC(F)(F)F)cc1 (centres unmarked) [Compound 113]"
outcome_measure = "Termite-killing effect"
assay_value = "A (100)"

[[record]]
molecule = "CN(C(=O)NN=C(Cc1ccccc1)c1ccccc1)c1ccc(OC(F)(F)F)cc1 [Compound 47]"
outcome_measure = "Termite-killing effect"
assay_value = "A (100)"

[[record]]
molecule = "CN(N=C(c1ccccc1)C(O)c1ccccc1)C(=O)Nc1ccc(OC(F)(F)F)cc1 (racemic) [Compound 75]"
outcome_measure = "Termite-killing effect"
assay_value = "A (100)"

[[record]]
molecule = "Cc1cccc(N(Cc2ccc(C#N)cc2)N=CC(=O)Nc2ccc(OC(F)(F)F)cc2)c1 [Compound 137]"
outcome_measure = "Termite-killing effect"
assay_value = "A (100)"

[[record]]
molecule = "N#Cc1ccc(CC(NNC(=O)Nc2ccc(SC(F)(F)F)cc2)c2cccc(F)c2)cc1 (centres unmarked) [Compound 115]"
outcome_measure = "Termite-killing effect"
assay_value = "A (100)"

[[record]]
molecule = "CC(C(=NNC(=O)Nc1ccc(OC(F)(F)F)cc1)c1ccccc1)c1ccc(Cl)cc1 (centres unmarked) [Compound 54]"
outcome_measure = "Termite-killing effect"
assay_value = "A (100)"

[[record]]
molecule = "O=C(NN=C(Cc1ccccc1)c1ccccc1)Nc1ccc(Cl)cc1 [Compound 1]"
outcome_measure = "Termite-killing effect"
assay_value = "A (100)"

[[record]]
molecule = "N#Cc1ccc(CC(NNC(=S)Nc2ccc(OC(F)(F)F)cc2)c2cccc(C(F)(F)F)c2)cc1 (centres unmarked) [Compound 100]"
outcome_measure = "Termite-killing effect"
assay_value = "A (100)"

[[record]]
molecule = "CC(C)COC(C(=NNC(=O)Nc1ccc(Cl)cc1)c1ccccc1)c1ccccc1 (racemic) [Compound 70]"
outcome_measure = "Termite-killing effect"
assay_value = "A (100)"

[[record]]
molecule = "O=C(NNC(Cc1ccccc1)c1ccccc1)Nc1ccc(Cl)cc1 (racemic) [Compound 84]"
outcome_measure = "Termite-killing effect"
assay_value = "A (100)"

[[record]]
molecule = "N#Cc1ccc(CC(NNC(=O)Nc2ccc(S(=O)(=O)C(F)(F)F)cc2)c2cccc(C(F)(F)F)c2)cc1 (centres unmarked) [Compound 120]"
outcome_measure = "Termite-killing effect"
assay_value = "A (100)"

[[record]]
molecule = "CN(N=C(c1ccccc1)C(O)c1ccccc1)C(=O)Nc1ccc(Cl)cc1 (racemic) [Compound 74]"
outcome_measure = "Termite-killing effect"
assay_value = "A (100)"

[[record]]
molecule = "CC(C(=NNC(=O)Nc1ccc(OC(F)(F)F)cc1)c1ccccc1)c1ccccc1 (centres unmarked) [Compound 52]"
outcome_measure = "Termite-killing effect"
assay_value = "A (100)"

[[record]]
molecule = "N#Cc1ccc(CC(=NNC(=O)Nc2ccc(OC(F)(F)F)cc2)c2cccc(C(F)(F)F)c2)cc1 [Compound 82]"
outcome_measure = "Termite-killing effect"
assay_value = "B (99-90)"

[[record]]
molecule = "N#Cc1ccc(CN(NCC(=O)Nc2ccc(Cl)cc2)c2ccccc2)cc1 [Compound 145]"
outcome_measure = "Termite-killing effect"
assay_value = "A (100)"

[[record]]
molecule = "N#Cc1ccc(CC(=NNC(=O)Nc2ccc(S(=O)(=O)C(F)(F)F)cc2)c2cccc(Cl)c2)cc1 [Compound 23]"
outcome_measure = "Termite-killing effect"
assay_value = "A (100)"

[[record]]
molecule = "N#Cc1ccc(CC(=NNC(=O)Nc2ccc(Cl)cc2)c2cccc(Cl)c2)cc1 [Compound 17]"
outcome_measure = "Termite-killing effect"
assay_value = "A (100)"

[[record]]
molecule = "N#Cc1ccc(CN(N=CC(=O)Nc2ccc(Cl)cc2)c2cccc(F)c2)cc1 [Compound 134]"
outcome_measure = "Termite-killing effect"
assay_value = "A (100)"

[[record]]
molecule = "N#Cc1ccc(CN(N=CC(=O)Nc2ccc(SC(F)(F)F)cc2)c2cccc(Cl)c2)cc1 [Compound 132]"
outcome_measure = "Termite-killing effect"
assay_value = "A (100)"

[[record]]
molecule = "N#Cc1ccc(C(O)C(=NNC(=O)Nc2ccc(OC(F)(F)F)cc2)c2ccccc2)cc1 (racemic) [Compound 63]"
outcome_measure = "Termite-killing effect"
assay_value = "A (100)"

[[record]]
molecule = "O=C(NN=C(c1ccccc1)C(O)c1ccc(Cl)cc1)Nc1ccc(OC(F)(F)F)cc1 (racemic) [Compound 61]"
outcome_measure = "Termite-killing effect"
assay_value = "A (100)"

[[record]]
molecule = "O=C(NN=C(Cc1ccccc1)c1cccc(Br)c1)Nc1ccc(OC(F)(F)F)cc1 [Compound 25]"
outcome_measure = "Termite-killing effect"
assay_value = "D (79-50)"

[[record]]
molecule = "O=C(NN=C(c1ccccc1)C(OC(=O)c1ccccc1)c1ccccc1)Nc1ccc(OC(F)(F)F)cc1 (racemic) [Compound 73]"
outcome_measure = "Termite-killing effect"
assay_value = "A (100)"

[[record]]
molecule = "N#Cc1ccc(CC(=NNC(=O)Nc2ccc(S(=O)(=O)C(F)(F)F)cc2)c2cccc(Br)c2)cc1 [Compound 30]"
outcome_measure = "Termite-killing effect"
assay_value = "A (100)"

[[record]]
molecule = "N#Cc1ccc(CC(=NNC(=S)Nc2ccc(OC(F)(F)F)cc2)c2cccc(C(F)(F)F)c2)cc1 [Compound 45]"
outcome_measure = "Termite-killing effect"
assay_value = "A (100)"

[[record]]
molecule = "CN(C(=O)C=NN(Cc1ccc(C#N)cc1)c1cccc(C(F)(F)F)c1)c1ccc(Cl)cc1 [Compound 141]"
outcome_measure = "Termite-killing effect"
assay_value = "D (79-50)"

[[record]]
molecule = "O=C(CNN(Cc1ccc(Cl)cc1)c1ccccc1)Nc1ccc(OC(F)(F)F)cc1 [Compound 144]"
outcome_measure = "Termite-killing effect"
assay_value = "B (99-90)"

